TESTED TARGET: CSNK1G2 (human) (UniProt P78368)
Sequence (P78368 whole entry, looked up): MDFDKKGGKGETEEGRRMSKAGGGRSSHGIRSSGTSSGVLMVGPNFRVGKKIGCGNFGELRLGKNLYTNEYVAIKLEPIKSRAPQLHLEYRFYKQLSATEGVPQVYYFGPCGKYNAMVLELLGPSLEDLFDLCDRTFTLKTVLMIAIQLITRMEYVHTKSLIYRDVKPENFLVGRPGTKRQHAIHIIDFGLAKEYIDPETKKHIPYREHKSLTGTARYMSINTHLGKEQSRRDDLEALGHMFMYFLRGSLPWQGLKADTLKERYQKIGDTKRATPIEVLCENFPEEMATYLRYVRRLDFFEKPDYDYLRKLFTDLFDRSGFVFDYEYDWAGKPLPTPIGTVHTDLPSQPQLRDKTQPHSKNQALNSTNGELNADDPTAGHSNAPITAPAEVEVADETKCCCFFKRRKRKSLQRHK
PROCEDURE DETAILS: KINOMEscan competition binding
CONDITION PARAMETERS: compound 10.0 µM
kinase still bound, per cent of control overview
PARAMETER MEASURED: kinase still bound, per cent of control (%)

SMILES INPUT: Cc1n[nH]c2ccc(-c3cncc(OC[C@@H](N)Cc4c[nH]c5ccccc45)c3)cc12
PARAMETER MEASURED: kinase still bound, per cent of control
U: %
VALUE: 0.65
//
SMILES INPUT: COc1ccc(N(C(=O)Oc2c(C)cccc2C)c2ccnc(Nc3ccc(N4CCN(C)CC4)cc3)n2)c(OC)c1
PARAMETER MEASURED: kinase still bound, per cent of control
U: %
VALUE: 33
//
SMILES INPUT: CS(=O)(=O)N1CCN(Cc2cc3nc(-c4cccc5[nH]ncc45)nc(N4CCOCC4)c3s2)CC1
PARAMETER MEASURED: kinase still bound, per cent of control
U: %
VALUE: 100
//
SMILES INPUT: COc1cc(C(=O)N2CCC(N3CCN(C)CC3)CC2)ccc1Nc1ncc2c(n1)N(C)c1ccccc1C(=O)N2C
PARAMETER MEASURED: kinase still bound, per cent of control
U: %
VALUE: 100
//
SMILES INPUT: O=C1NC(=O)/C(=C/c2ccc3nccc(-c4ccncc4)c3c2)S1
PARAMETER MEASURED: kinase still bound, per cent of control
U: %
VALUE: 0.05
//
SMILES INPUT: O=c1cc(N2CCOCC2)oc2c(-c3cccc4c3sc3ccccc34)cccc12
PARAMETER MEASURED: kinase still bound, per cent of control
U: %
VALUE: 85
//
SMILES INPUT: COCC(=O)NC/C=C/c1ccc2ncnc(Nc3ccc(Oc4ccc(C)nc4)c(C)c3)c2c1
PARAMETER MEASURED: kinase still bound, per cent of control
U: %
VALUE: 100
//
SMILES INPUT: COc1cc2ncnc(-n3nc(-c4ccccn4)nc3N)c2cc1OC
PARAMETER MEASURED: kinase still bound, per cent of control
U: %
VALUE: 1.1
//
SMILES INPUT: CCN(CC)CCCCNc1ncc2cc(-c3cc(OC)cc(OC)c3)c(NC(=O)NC(C)(C)C)nc2n1
PARAMETER MEASURED: kinase still bound, per cent of control
U: %
VALUE: 100
//
SMILES INPUT: C[C@@H](Oc1cc(-c2cnn(C3CCNCC3)c2)cnc1N)c1c(Cl)ccc(F)c1Cl
PARAMETER MEASURED: kinase still bound, per cent of control
U: %
VALUE: 100
//
SMILES INPUT: CNC(=O)c1ccc(Nc2cc(Nc3ccccc3S(=O)(=O)C(C)C)c3cc[nH]c3n2)nc1
PARAMETER MEASURED: kinase still bound, per cent of control
U: %
VALUE: 3.1
//
SMILES INPUT: N#CCNC(=O)c1ccc(-c2ccnc(Nc3ccc(N4CCOCC4)cc3)n2)cc1
PARAMETER MEASURED: kinase still bound, per cent of control
U: %
VALUE: 100
//
SMILES INPUT: O=C(Nc1cccc(Nc2ncc(Br)c(NCCc3cnc[nH]3)n2)c1)N1CCCC1
PARAMETER MEASURED: kinase still bound, per cent of control
U: %
VALUE: 76
//
SMILES INPUT: COc1cc2ncn(-c3cc(OCc4ccccc4C(F)(F)F)c(C(N)=O)s3)c2cc1OC
PARAMETER MEASURED: kinase still bound, per cent of control
U: %
VALUE: 100
//
SMILES INPUT: C=CC(=O)Nc1cc(-n2c(=O)ccc3cnc4ccc(-c5cn[nH]c5)cc4c32)ccc1C
PARAMETER MEASURED: kinase still bound, per cent of control
U: %
VALUE: 94
//
SMILES INPUT: NC(=O)Nc1cc(-c2cccc(F)c2)sc1C(=O)N[C@@H]1CCCNC1
PARAMETER MEASURED: kinase still bound, per cent of control
U: %
VALUE: 0.95
//
SMILES INPUT: CCN(CC)CCCCNc1ncc2c(n1)N(C)C(=O)N(c1c(Cl)c(OC)cc(OC)c1Cl)C2
PARAMETER MEASURED: kinase still bound, per cent of control
U: %
VALUE: 100
//
SMILES INPUT: COc1cc(N2CCN(C)CC2)ccc1Nc1ncc2c(n1)N(C)c1ccccc1C(=O)N2C
PARAMETER MEASURED: kinase still bound, per cent of control
U: %
VALUE: 100
//
SMILES INPUT: CNC(=O)c1cc(Oc2ccc(NC(=O)Nc3ccc(Cl)c(C(F)(F)F)c3)cc2)ccn1
PARAMETER MEASURED: kinase still bound, per cent of control
U: %
VALUE: 94

Just for reference, the kinase profiling compilation of Christmann-Franck et al. (2016) is where these values come from.
